TARGET_OR_SYSTEM: human Opioid Receptor Mu (Opiate Mu), OPRM1 (gene 4988)
ASSAY_TEXT: NVS_GPCR_hOpiate_mu: NovaScreen (NVS) G Protein-Coupled Receptor Assay for human Opioid Receptor Mu (Opiate Mu) (AID 2283290);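 note: hits lower bound tracer signal versus DMSO meaning displacement of the ligand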
Results filed as inconclusive are left out. Calls of active or inactive are those of the source. Rule for the calls: active = hit-call score of the fitted dose curve at least 0.9, where 1 is the maximum; inconclusive = response in the unintended direction; inactive = score below 0.9.
ASSAY_METRIC: AC50

Example compounds with recorded AC50:
SMILES_REPR | AC50
c1cc2c3c(cccc3c1)CC2 | inactive
Nc1ccc2ccccc2c1 | inactive
CCCN(CCC)c1c([N+](=O)[O-])cc(C(C)C)cc1[N+](=O)[O-] | inactive
CSC(C)(C)C=NO | inactive

Exercise: Please report AC50 for the following compound: N#Cc1c(-c2ccc(Cl)cc2)[nH]c(C(F)(F)F)c1Br
Key: inactive

Exercise: Please report the measured AC50 for CC1(C)CN=C(NN=C(/C=C/c2ccc(C(F)(F)F)cc2)/C=C/c2ccc(C(F)(F)F)cc2)NC1
Key: 6.5 µM (active)

Exercise: Answer with the recorded AC50 for the compound listed here: O=c1ssc(Cl)c1Cl
Key: 0.885 µM (active)
